Data provenance: paper PMC12153055

target: dsDNA oligomer; experiment: SPR biosensor binding to surface-anchored dsDNA oligomer; settings: surface-blocked DNA oligomer, equilibrium dissociation constant
result-type: pKd
FYI, pKd means -log10 of a concentration in mol per litre.

Some solved cases for reference:
>>> experimental_value("COc1cc(/C=C/c2cc(/C=C/c3ccc(O)c(OC)c3)n(-c3ccccn3)n2)ccc1O.Cc1ccc(C(C)C)cc1.[Cl-].[Cl][Os+] [[2]Cl, [Os(p-cym)(HZPcurc)Cl]Cl]")
5.38
>>> experimental_value("Cc1ccc(C(C)C)cc1.Oc1ccc(/C=C/c2cc(/C=C/c3ccc(O)cc3)n(-c3ccccn3)n2)cc1.[Cl-].[Cl][Os+] [[4]Cl, [Os(p-cym)(HZPbdcurc)Cl]Cl]")
4.41
>>> experimental_value("Oc1ccc(/C=C/c2cc(/C=C/c3ccc(O)cc3)n(-c3ccccn3)n2)cc1")
4.77

Task: Give pKd (dsDNA oligomer) of the following compound: COc1cc(/C=C/c2cc(/C=C/c3ccc(O)c(OC)c3)n(-c3ccccn3)n2)ccc1O.Cc1ccc(C(C)C)cc1.[Cl-].[Cl][Ru+] [[1]Cl, [Ru(p-cym)(HZPcurc)Cl]Cl]
Output: 6.54

Task: And the next one, Cc1ccc(C(C)C)cc1.Oc1ccc(/C=C/c2cc(/C=C/c3ccc(O)cc3)n(-c3ccccn3)n2)cc1.[Cl-].[Cl][Ru+] [[3]Cl, [Ru(p-cym)(HZPbdcurc)Cl]Cl] ?
Output: 5.66

Task: And the next one, COc1cc(/C=C/c2cc(/C=C/c3ccc(O)c(OC)c3)n(-c3ccccn3)n2)ccc1O ?
Output: 5.35
